- subject-of-test: Calmodulin-1 (Homo sapiens) (UniProt P0DP23)
- test-description: CALM1 binders on microarrays, EGTA buffer, profiling panel, biochemical, small-molecule microarray, Cy5-labelled CALM1 (AID 1111);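 also: labelled calmodulin applied in Tris saline Tween buffer holding calcium plus EGTA and DTT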
- test-conditions: Cy5-CALM1 binding fluorescence, higher = more signal
Below, each of the compounds is paired with its reported composite z-score value.
Simply state the number, no unit and no words.

# annotated cases, reported composite z-score shown
Input line: Requested read-out: composite z-score. Entry: CC(C)C[C@H]1NC(=O)[C@@]23C(=O)N[C@@H](Cc4ccccc4)C2[C@H](C)[C@@]2(C)O[C@H]2C3/C=C/C/C=C\CNC(=O)[C@@H]2CCCN2C1=O (some centres undefined)
Output line: -0.0621

Input line: For the compound shown here, `COCCOC(=O)N1C(=O)[C@@]2(c3ccccc31)[C@H](c1ccc(OCCO)cc1)N1[C@H](c3ccccc3)[C@H](c3ccccc3)OC(=O)[C@H]1[C@@H]2C(=O)N1CCN(c2ncccn2)CC1` , give the reported composite z-score.
Output line: 1.51

Input line: Give its composite z-score value. Item: `COC(=O)[C@@]1(Cc2ccc(OC)cc2)[C@H]2c3cc(C(=O)N(C)C)n(Cc4ccsc4Br)c3C[C@H]2CN1C(=O)c1ccccc1`
Output line: 1.01

Input line: Look at this compound and give its reported composite z-score. `CO[C@H]1O[C@H](CO)[C@@H](OC(=O)Nc2ccc(C(F)(F)F)cc2)[C@H](OC(=O)Nc2ccccc2-c2ccccc2)[C@H]1OC(=O)Nc1ccccc1-c1ccccc1`
Output line: 1.59

Input line: Report composite z-score for `CCOC(=O)C[C@H]1[C@H](OC(=O)c2ccc(-c3ccccc3)cc2)[C@@H](NC(=O)CC(C)C)c2cc(OCCCO)ccc2N1C(=O)Cc1ccc(OC)cc1` please.
Output line: 1.05

More entries:
Input line: Given the entry `COCCOC(=O)N1C(=O)[C@@]2(c3cc(C#CC4=CCCCC4)ccc31)[C@H](c1ccccc1OCCO)N1[C@H](c3ccccc3)[C@H](c3ccccc3)OC(=O)[C@H]1[C@@H]2C(N)=O` , report its measured composite z-score.
Output line: 0.367

Input line: Need composite z-score, item `COc1ccccc1CN1C(=O)c2ccccc2[C@](Cc2ccccc2I)(C(=O)NCCCN(C)C)[C@@H]1c1ccc(CO)cc1`
Output line: -0.167

###

- test-description: small-molecule microarray binders of probe aShh, primary screen, biochemical, biotinylated probe, 635/667 nm fluorescence (AID 1114);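 also: probe is biotin-labelled aShh protein from a stem cell growth factor screen; measures binding of labelled protein to compounds printed on the slide; score merges feature fluorescence at 667 nm with signal-to-noise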
- test-conditions: higher = more signal
Class Y: composite z-score at least 0.4. Class N: composite z-score below 0.4.

Input line: Would you say `COCCOC(=O)N1C(=O)[C@@]2(c3cc(C#Cc4ccc(OC)cc4)ccc31)[C@H](C(=O)Nc1nc3ccccc3s1)[C@H]1C(=O)O[C@H](c3ccccc3)[C@H](c3ccccc3)N1[C@@H]2c1ccccc1OCCO` shows composite z-score at minimum 0.4?
Output line: N

Input line: Form field: composite z-score at least 0.4? Entry: CC(=O)n1cc(C(O)C2C=CC3C(=O)N(c4ccccc4)C(=O)C3N2Nc2ccccc2F)c2ccccc21 (configuration not stated)
Output line: N

Input line: Would you say `COC(=O)[C@@]1(Cc2ccc(F)cc2)[C@H]2c3cc(C(=O)N4CCCC4)n(CCO)c3C[C@H]2CN1C(=O)c1ccccc1` shows composite z-score at minimum 0.4?
Output line: N

Input line: Please check the record `CCOC(=O)C1=CC[C@@H](c2ccc(F)cc2)N(S(=O)(=O)c2ccc(C)cc2)[C@H]1c1ccc([N+](=O)[O-])cc1` and state if its composite z-score is at or above 0.4.
Output line: N

Input line: Threshold query (composite z-score >= 0.4) on CCN(CC)c1ccc(N2CC=CC34O[C@@H]5C=CCOC(=O)[C@@H]5[C@H]3C(=O)N(CCO)[C@@H]4C2=O)cc1 (some centres not stated)
Output line: N

More entries:
Input line: Evaluate `COC(=O)[C@@]1(Cc2ccc(F)cc2)[C@H]2c3cc(C(=O)N(C)C)n(CCO)c3C[C@H]2CN1C(=O)c1ccccc1` : composite z-score at minimum 0.4?
Output line: Y

Input line: Quick check, composite z-score >= 0.4? `COC(=O)[C@@]1(Cc2ccc(OC)cc2)[C@H]2c3cc(C(=O)N(C)C)n(Cc4ccsc4Br)c3C[C@H]2CN1C(=O)c1ccccc1`
Output line: Y

###

- subject-of-test: Calmodulin-1 (Homo sapiens) (UniProt P0DP23)
- test-description: CALM1 binders on microarrays, EGTA buffer, profiling panel, biochemical, small-molecule microarray, Cy5-labelled CALM1 (AID 1111);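 also: labelled calmodulin applied in Tris saline Tween buffer holding calcium plus EGTA and DTT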
- test-conditions: Cy5-CALM1 binding fluorescence, higher = more signal
parameter-measured: composite z-score
# answer = number (no unit)

Input line: Quick one: composite z-score for `COCCOC(=O)N1C(=O)[C@@]2(c3cc(C#CCC(C(=O)OC)C(=O)OC)ccc31)[C@H](c1ccc(OCCO)cc1)N1[C@H](c3ccccc3)[C@H](c3ccccc3)OC(=O)[C@H]1[C@@H]2C(=O)N1CCCCCCC1` ?
Output line: 2.57

As a next step, examine the compound that follows.
Input line: Which measured composite z-score value corresponds to `C=CCOC(=O)[C@H]1[C@@H]2C(=O)O[C@@H](c3ccccc3)[C@@H](c3ccccc3)N2[C@@H](c2ccc(OCCOC(=O)[C@@H]3C[C@@H]4C(=O)N[C@@H](CC(C)C)C(=O)N4[C@@H]3c3ccc(O)cc3)cc2)[C@]12C(=O)Nc1ccc(I)cc12` ?
Output line: 1.81

###

Items are presented alongside their recorded composite z-score.
- subject-of-test: Focal adhesion kinase 1 (Homo sapiens) (UniProt Q05397)
- Sequence (Q05397 whole entry, looked up): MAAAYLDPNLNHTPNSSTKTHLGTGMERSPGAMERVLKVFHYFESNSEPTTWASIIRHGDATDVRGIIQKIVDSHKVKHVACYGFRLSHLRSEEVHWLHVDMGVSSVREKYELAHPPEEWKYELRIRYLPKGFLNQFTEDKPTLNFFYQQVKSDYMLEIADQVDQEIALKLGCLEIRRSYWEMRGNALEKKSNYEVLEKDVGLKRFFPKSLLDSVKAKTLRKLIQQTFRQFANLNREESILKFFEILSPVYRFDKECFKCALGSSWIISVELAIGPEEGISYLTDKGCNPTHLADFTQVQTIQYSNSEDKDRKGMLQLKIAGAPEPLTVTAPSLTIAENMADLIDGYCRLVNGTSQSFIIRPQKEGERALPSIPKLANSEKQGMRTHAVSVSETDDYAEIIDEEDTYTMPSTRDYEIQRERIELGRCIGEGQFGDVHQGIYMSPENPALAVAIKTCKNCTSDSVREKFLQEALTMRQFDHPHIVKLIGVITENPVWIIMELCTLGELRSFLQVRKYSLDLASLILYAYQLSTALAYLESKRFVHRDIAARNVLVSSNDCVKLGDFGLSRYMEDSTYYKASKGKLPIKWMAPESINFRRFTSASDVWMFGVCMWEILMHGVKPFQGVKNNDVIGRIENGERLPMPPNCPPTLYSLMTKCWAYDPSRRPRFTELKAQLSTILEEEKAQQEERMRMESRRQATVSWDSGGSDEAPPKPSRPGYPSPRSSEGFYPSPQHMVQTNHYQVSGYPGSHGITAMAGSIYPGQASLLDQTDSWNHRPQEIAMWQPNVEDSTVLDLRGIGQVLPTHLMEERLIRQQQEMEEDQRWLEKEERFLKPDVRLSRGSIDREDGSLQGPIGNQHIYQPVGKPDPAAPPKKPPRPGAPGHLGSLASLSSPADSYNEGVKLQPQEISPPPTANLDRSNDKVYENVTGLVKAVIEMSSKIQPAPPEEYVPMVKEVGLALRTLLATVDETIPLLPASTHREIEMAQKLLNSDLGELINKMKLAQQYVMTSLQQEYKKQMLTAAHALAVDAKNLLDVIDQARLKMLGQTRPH
- test-description: small-molecule microarray binders of FAK, primary screen, biochemical, 635/667 nm fluorescence, BSA, DTT (AID 1130);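 also: composite of spot emission at 667 nm and signal to noise over triplicate slides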
- test-conditions: PTK2 binding, 635 nm fluorescence, higher = more signal
Give the figure by itself; no unit, no explanation.

Input line: Which composite z-score is reported for this molecule? `C#CCN=C(N)N`
Output line: -0.0375

Continuing:
Input line: Given the molecule `C=CCOC(=O)[C@H]1[C@@H]2C(=O)O[C@@H](c3ccccc3)[C@@H](c3ccccc3)N2[C@@H](c2ccc(OCCOC(=O)[C@@H]3C[C@@H]4C(=O)N[C@@H](Cc5ccccc5)C(=O)N4[C@@H]3c3ccc(O)cc3)cc2)[C@]12C(=O)Nc1ccccc12` , what is its reported composite z-score?
Output line: 1.53

Input line: composite z-score for `COC(=O)[C@]1(CO)N=C(c2ccc(OCCCO)cc2)O[C@@H]1c1ccccc1CN=[N+]=[N-]` ?
Output line: 0.1

Input line: Any idea what its composite z-score is? The molecule is `C#CCN(C/C=C/c1ccccc1)[C@H](CO[Si](C)(C)C(C)(C)C)c1ccccc1`
Output line: 0.329

###

Entries and their measured composite z-score follow.
- subject-of-test: Neurogenic locus notch homolog protein 2 (Homo sapiens)
- test-description: Notch2 binders on small-molecule microarrays, primary screen, biochemical, small-molecule microarray, 635 nm fluorescence, stem cell growth factors (AID 1073)
- test-conditions: Notch2 binding, higher = more signal
Form: value (number only, do not type unit).

// worked examples, composite z-score included
Input line: For the compound `O=C(NCC(F)(F)F)[C@@H]1c2ccccc2C(=O)N(CC23CC4CC(CC(C4)C2)C3)[C@H]1c1ccc(CO)cc1` , what composite z-score is on record?
Output line: 0.958

Input line: Could you share which composite z-score value was measured for `O=C1c2ccccc2[C@@]2(Cc3ccccc3N(Cc3ccccc3)C2=O)[C@H](c2ccc(CO)cc2)N1Cc1ccccc1` ?
Output line: -0.476

Input line: composite z-score lookup needed for `C#CCN(C/C=C/c1ccccc1)[C@H](CO[Si](C)(C)C(C)(C)C)c1ccccc1` , thanks.
Output line: -1.14

Now look at this one.
Input line: Recorded composite z-score for CC(C)C[C@H]1NC(=O)[C@@]23C(=O)N[C@@H](Cc4ccccc4)C2[C@H](C)[C@@]2(C)O[C@H]2C3/C=C/C/C=C\CNC(=O)[C@@H]2CCCN2C1=O (some centres undefined) , please?
Output line: 0.303

###

- test-description: small-molecule microarray binders of probe aNog, primary screen, biochemical, biotinylated probe, 635/667 nm fluorescence (AID 1115);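 also: probe is biotinylated aNog protein used at 0.15 µg/mL for 1 h at 4 C; z-score combines 667 nm fluorescence of each spot with its signal to noise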
- test-conditions: higher = more signal
parameter-measured: composite z-score
Answer using only a numeral; do not append any unit.

Check out these entries, answers already filled in.
Input line: Dear colleague, I am looking for the recorded composite z-score of the following molecule: `O=C1O[C@H](c2ccccc2)[C@H](c2ccccc2)N2[C@H]1[C@@H](C(=O)N1CCN(c3ncccn3)CC1)[C@]1(C(=O)Nc3ccccc31)[C@H]2c1ccc(O)cc1`
Output line: 0.265

Input line: Recorded composite z-score for `CC(C)CNC(=O)[C@@H]1c2ccccc2C(=O)N(Cc2ccccc2Cl)[C@H]1c1ccc(CO)cc1` , please?
Output line: -0.0769

Input line: State the recorded composite z-score for this entry: `CCOC(=O)C1=C[C@@H](C(C)(C)C)N(S(=O)(=O)c2ccc(C)cc2)[C@H]1c1ccccc1Cl`
Output line: 0.527

Input line: Reported composite z-score, molecule CCCCN1CC=CC23O[C@@H]4C=CCOC(=O)[C@@H]4[C@H]2C(=O)N(C(CO)C(C)C)[C@@H]3C1=O (some centres undefined) : ____
Output line: -0.381

Input line: Report composite z-score for O=C1NC(=O)C2C1C=CC(C(O)c1ccc(F)cc1)N2Nc1ccccn1 (centres undefined) please.
Output line: 0.147

Input line: Give its composite z-score value. Item: `COCCOC(=O)N1C(=O)[C@@]2(c3cc(C#CCNC(N)=O)ccc31)[C@H](C(=O)NC[C@H](O)c1ccccc1)[C@H]1C(=O)O[C@H](c3ccccc3)[C@H](c3ccccc3)N1[C@@H]2c1ccc(OCCO)cc1`
Output line: 1.09

Input line: Which composite z-score value is on record for `CN(C)C(=O)[C@]1(Cc2ccccc2CN=[N+]=[N-])N=C(c2ccc(OCCCO)cc2)O[C@@H]1c1ccccc1N=[N+]=[N-]` ?
Output line: 0.526

Input line: Consider the molecule shown here: `CCOC(=O)C1=CC[C@@H](c2ccccc2)N(S(=O)(=O)c2ccc(C)cc2)[C@H]1C#N` What is its recorded composite z-score?
Output line: -0.59

Input line: Requested field: composite z-score. Item: `COCCOC(=O)N1C(=O)[C@@]2(c3cc(C#CCC(C(=O)OC)C(=O)OC)ccc31)[C@H](C(=O)N1CCCCCCC1)[C@H]1C(=O)O[C@H](c3ccccc3)[C@H](c3ccccc3)N1[C@@H]2c1ccccc1OCCO`
Output line: 3.14

Input line: Dear colleague, I am looking for the recorded composite z-score of the following molecule: `COc1ccc([Si](C)(C)[C@H]2[C@H](CCO)O[C@@]3(C(=O)N(Cc4ccc(N5CCOC5=O)cc4)c4ccccc43)[C@@H]2C)cc1`
Output line: 0

Others:
Input line: If you can, please state the reported composite z-score value of `C#CCN=C(N)N` .
Output line: -0.226

Input line: Could you share which composite z-score value was measured for `C#CCN([C@H](/C=C/C1CC1)[C@@H](O)Cc1ccccc1)[C@@H](Cc1ccccc1)C(=O)OC` ?
Output line: -0.33

Input line: Which composite z-score reading was recorded for the molecule C=CCC(OC(C)=O)[C@@H]1[C@@H](N(Cc2ccc(-c3cccc(C(F)(F)F)c3)o2)C(=O)Cc2ccc(OC)cc2)c2cc(OCCCO)ccc2N1C(=O)c1ccc2ccccc2n1 (some centres undefined) ?
Output line: 0.227

Input line: Give the measured composite z-score of C=CCC(OC(C)=O)[C@@H]1[C@@H](N(Cc2ccc(-c3cccc(C(F)(F)F)c3)o2)C(=O)Cc2ccc(F)cc2)c2cc(OCCCO)ccc2N1C(=O)c1ccc2ccccc2n1 (some centres undefined) .
Output line: -0.172
